- target-entity: mouse TMEM16A mutant S517A (Mus musculus, UniProt Q8BHY3, S517A)
- Construct: expressed in transfected cells; host or cells: HEK293T
- test-method-notes: Inside-out patch recording of 1PBC block, mutant S517A
- Format: cell-based
- test-settings: S517A; V 80 mV
result-type: IC50

compound="N#Cc1c(C(F)(F)F)cc(O)n2c1nc1ccccc12 [1PBC]" result_type=IC50 result_value="2.2 µM"

###

- target-entity: mouse TMEM16A mutant V543A (Mus musculus, UniProt Q8BHY3, V543A)
- Construct: expressed in transfected cells; host or cells: HEK293T
- test-method-notes: Inside-out patch recording of 1PBC block, mutant V543A
- Assay type: cell-based
- test-settings: V543A; V 120 mV
pIC50: −log10 of the molar value.
result-type: pIC50

compound="N#Cc1c(C(F)(F)F)cc(O)n2c1nc1ccccc12 [1PBC]" result_type=pIC50 result_value=5.05

###

- target-entity: mouse TMEM16A mutant R535A (Mus musculus, UniProt Q8BHY3, R535A)
- Construct: expressed in transfected cells; host or cells: HEK293T
- Sequence (Q8BHY3 1-960 R535A): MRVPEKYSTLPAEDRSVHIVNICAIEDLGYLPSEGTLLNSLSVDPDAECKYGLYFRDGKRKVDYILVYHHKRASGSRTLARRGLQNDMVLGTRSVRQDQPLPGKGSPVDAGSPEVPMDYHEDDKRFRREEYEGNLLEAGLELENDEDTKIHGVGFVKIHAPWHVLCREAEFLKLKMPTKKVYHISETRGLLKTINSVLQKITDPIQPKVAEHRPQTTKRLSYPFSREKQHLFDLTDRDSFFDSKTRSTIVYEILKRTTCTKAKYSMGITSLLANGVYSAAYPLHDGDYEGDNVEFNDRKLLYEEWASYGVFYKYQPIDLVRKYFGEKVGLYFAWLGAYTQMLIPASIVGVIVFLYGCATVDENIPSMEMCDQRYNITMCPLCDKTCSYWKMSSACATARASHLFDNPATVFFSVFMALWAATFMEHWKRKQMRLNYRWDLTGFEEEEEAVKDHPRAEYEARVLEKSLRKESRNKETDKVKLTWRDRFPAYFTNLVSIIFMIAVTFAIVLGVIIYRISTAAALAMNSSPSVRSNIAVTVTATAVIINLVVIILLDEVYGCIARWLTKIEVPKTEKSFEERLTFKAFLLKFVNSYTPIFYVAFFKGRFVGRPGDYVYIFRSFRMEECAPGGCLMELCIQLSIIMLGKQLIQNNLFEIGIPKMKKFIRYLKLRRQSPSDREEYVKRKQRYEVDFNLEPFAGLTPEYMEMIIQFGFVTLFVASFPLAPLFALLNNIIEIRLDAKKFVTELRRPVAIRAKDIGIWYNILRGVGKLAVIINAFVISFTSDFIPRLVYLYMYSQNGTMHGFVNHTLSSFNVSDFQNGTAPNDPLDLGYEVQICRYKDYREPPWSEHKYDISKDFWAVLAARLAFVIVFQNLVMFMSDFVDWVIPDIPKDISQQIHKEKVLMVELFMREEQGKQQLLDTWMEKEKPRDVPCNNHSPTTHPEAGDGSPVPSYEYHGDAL
- test-method-notes: Inside-out patch recording of 1PBC block, mutant R535A
- Assay type: cell-based
- test-settings: 20 mV; 2 µM Ca2+
result-type: IC50

substance_smiles=N#Cc1c(C(F)(F)F)cc(O)n2c1nc1ccccc12 target_entity="mouse TMEM16A mutant R535A (Mus musculus, UniProt Q8BHY3, R535A)" result_type=IC50 result_value="9.48 µM"

src = paper PMC9120017
